# testedTarget: T1, human C1s (human, UniProt P09871 16-688)
# T1 construct: Analyte in the Biacore assays; also called hC1s; serum-derived human C1s (CompTech)
# T1 sequence: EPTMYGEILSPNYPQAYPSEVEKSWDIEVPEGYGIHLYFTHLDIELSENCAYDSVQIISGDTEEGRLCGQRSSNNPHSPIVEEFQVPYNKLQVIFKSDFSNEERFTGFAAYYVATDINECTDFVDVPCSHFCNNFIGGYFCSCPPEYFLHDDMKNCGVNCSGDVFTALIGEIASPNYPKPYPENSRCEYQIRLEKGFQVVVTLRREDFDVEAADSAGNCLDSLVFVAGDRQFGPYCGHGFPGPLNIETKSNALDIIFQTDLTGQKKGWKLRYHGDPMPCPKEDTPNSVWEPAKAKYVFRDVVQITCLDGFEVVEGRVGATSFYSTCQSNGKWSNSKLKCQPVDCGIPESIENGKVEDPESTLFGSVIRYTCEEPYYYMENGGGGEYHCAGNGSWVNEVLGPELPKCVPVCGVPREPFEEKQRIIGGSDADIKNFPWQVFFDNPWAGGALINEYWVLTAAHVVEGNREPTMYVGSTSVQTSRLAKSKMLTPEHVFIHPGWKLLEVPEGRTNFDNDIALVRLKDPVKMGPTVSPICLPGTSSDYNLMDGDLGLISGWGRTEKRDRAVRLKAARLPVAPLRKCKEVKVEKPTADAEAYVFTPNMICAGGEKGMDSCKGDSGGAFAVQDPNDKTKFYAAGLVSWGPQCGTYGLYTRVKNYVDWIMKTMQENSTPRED
# assayComment: SPR (Biacore T200, 37C), Ab captured on protein A/G; pH 5.8, 1.2 mM Ca
quantityName: Kd (nM)
Express your answer in nM, writing the number without its unit.

Below, 2 binders whose answers are already recorded.
# binder, measurementUnits, testValue
rows = [
    ("C1_IPN92H0144-SG4GK/IPN93L0024-SK1 (antibody, human IgG4 S228P, kappa, name in Kabat numbering, V domains shown, Substitutions from IPN009VH2, Kabat numbering; also called IPN92H0144/IPN93L0024) VH: EVMLVESGGGLVKPGGSLRLSCAASGFTFSNYAMSWVRQAPGKGLEWVATISSGGSKTYYLDSVKGRFTISRDNSKDTLYLQMNSLRAEDTALYYCARLFTGHAMDYWGQGTLVTVSS VL: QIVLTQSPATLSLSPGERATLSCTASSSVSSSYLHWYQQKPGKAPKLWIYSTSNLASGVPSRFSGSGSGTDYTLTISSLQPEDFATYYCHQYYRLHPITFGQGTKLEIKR", "nM", 23.4),
    ("C1_IPN92H0091-SG4GK/IPN93L0024-SK1 (antibody, human IgG4 S228P, kappa, name in Kabat numbering, V domains shown, Substitutions from IPN009VH2, Kabat numbering; also called IPN92H0091/IPN93L0024) VH: EVMLVESGGGLVKPGGSLRLSCAASGFTFSNYAKSWVRQAPGKGLEWVATISSGGSHTYYLDSVKGRFTISRDNSKDTLYLQMNSLRAEDTALYYCARLFTGHAMDYWGQGTLVTVSS VL: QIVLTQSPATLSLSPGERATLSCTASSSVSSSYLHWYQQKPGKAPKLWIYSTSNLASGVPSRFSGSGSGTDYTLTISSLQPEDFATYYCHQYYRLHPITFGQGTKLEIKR", "nM", 12),
]

Now look at this one.
## Task What does the record list as Kd for C1_IPN92H0162-SG4GK/IPN93L0024-SK1 (antibody, human IgG4 S228P, kappa, name in Kabat numbering, V domains shown, Substitutions from IPN009VH2, Kabat numbering; also called IPN92H0162/IPN93L0024) VH: EVMLVESGGGLVKPGGSLRLSCAASGFTFSNYAMSWVRQAPGKGLEWVATISSGGSHTYKLDSVKGRFTISRDNSKDTLYLQMNSLRAEDTALYYCARLFTGHAMDYWGQGTLVTVSS VL: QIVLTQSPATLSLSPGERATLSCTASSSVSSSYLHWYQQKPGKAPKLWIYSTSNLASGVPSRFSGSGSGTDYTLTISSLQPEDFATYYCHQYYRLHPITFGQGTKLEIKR ?
## Result 11.5

Values from patent US20210032365A1
